- System: DU-145
- assay-notes: NCI tumour cell line growth inhibition, 48 h
Activity calls are given as the source filed them. No stated cut-off is given here; in the data, active = GI50 up to about 1.1 µM and inactive = higher.
Exercise: for every item that follows, state its recorded GI50.

If you can, please state the reported GI50 value of CC(C)(C)OC(=O)NC(Cc1ccc(OCc2ccccc2)cn1)C(N)=O (centres undefined) .
> 100 µM (inactive)

Param item = Cc1coc2c1C(OC(=O)C(C)C)C1(C)C(C)CCC(O)C1C2=O (centres undefined) ; retrieve measured GI50.
> 100 µM (inactive)

Tell me the measured GI50 of N=C(N)c1ccc(C(NC(=O)CNS(=O)(=O)c2ccc3ccccc3c2)P(=O)(Oc2ccccc2)Oc2ccccc2)cc1 (centres undefined) , please.
> 100 µM (inactive)

Query (molecule): CCCc1cc(COC)c(C#N)c(O)n1 ; field requested: GI50
> 100 µM (inactive)

Record request: GI50 value, item CC(=O)CC[N+](C)(C)C
88.5 µM (inactive)

Requested field: GI50. Item: Cc1ncc(CSc2ccccc2N)c(CO)c1O
> 100 µM (inactive)

What measured GI50 goes with COC(=O)[C@]12CC=C3O[C@@H]4OC5(CCCCC5)O[C@@H]4[C@H]3C1C(=O)C=CC2=O (some centres undefined) ?
21 µM (inactive)

Returns the measured GI50 for the input molecule. Input: Oc1ccc(-c2ccccc2)nn1
> 100 µM (inactive)

For the molecule CCOC(=O)c1cccc(/N=N/c2ncc(/C=C/C(=O)OC)[nH]2)c1 , what GI50 is on record?
19.1 µM (inactive)

---

- Test system: CCRF-CEM
- assay-notes: NCI tumour cell line growth inhibition, 48 h
Activity calls are given as the source filed them. No stated cut-off is given here; in the data, active = GI50 up to about 1.1 µM and inactive = higher.
I'd be grateful if you could share measured GI50 for these entries.

Bench note: what GI50 did c1csc(-c2ccsc2-c2cccs2)c1 show?
76.9 µM (inactive)

For the compound shown here, O=C(O)c1ccc(Nc2nc3cc(C(F)(F)F)ccc3n3cccc23)cc1 , give the reported GI50.
16.5 µM (inactive)

Fill blank: measured GI50 of the compound O=[N+]([O-])C(/C(Cl)=C(/Cl)N1CCOCC1)=C1\Nc2ccccc2O1 is ____.
> 100 µM (inactive)

I would be grateful if you could share the reported GI50 for CCOC(=O)CC/C(=N/Nc1ccc(Cl)cc1[N+](=O)[O-])C(=O)OCC .
> 100 µM (inactive)

Which measured GI50 value corresponds to N#Cc1c(N2CCCC2)ncn(-c2ccccc2)c1=O ?
> 100 µM (inactive)

State the recorded GI50 for this entry: COc1ccc2c3c(c(C(=O)O)oc13)CCC2
> 100 µM (inactive)

GI50 lookup needed for Cc1c2cc[n+](C)cc2c(C)c2c1sc1ccccc12 , thanks.
0.776 µM (active)

If you can, please state the reported GI50 value of COc1ccccc1-c1cc(O)c2ccc(C)nc2n1 .
> 100 µM (inactive)

Data request, read-out GI50, for CN(CCN(C)C(=O)CCn1ccc(=O)[nH]c1=O)C(=O)CCn1ccc(=O)[nH]c1=O
> 100 µM (inactive)

Given COC(=O)Cc1ccc2c(c1)Sc1ccc(CC(=O)OC)cc1N2C , state its recorded GI50.
22 µM (inactive)

Can you share its GI50? I mean this compound: COC(=O)c1cc(S(=O)(=O)NC2=NNC(C)CN2)c(S)cc1Cl (stereo unspecified)
84.1 µM (inactive)

// provenance: ChEMBL document CHEMBL1201862
